Study target: Ac-VQIINK-NH2 (SEQ ID NO: 23) (N-terminal acetyl (Ac); C-terminal amide (NH2))
Assay name: cell-based or functional assay
Square brackets hold non-standard residues; d marks the D form. Ends that are not written are not given here.
Endpoint: VQIINK Inhibition IC50 (µm)

Binder | Endpoint | Units text | Assay result
[dW][dF][dL][dR][dI][dH][dW] [wflrihw] | VQIINK Inhibition IC50 | µm | 8.18
[dF][dK][dL][dK][dL][dR][dW] [fklklrw] | VQIINK Inhibition IC50 | µm | 1.2
[dW][dR][dL][dK][dV][dR][dW] [wrlkvrw] | VQIINK Inhibition IC50 | µm | 2.45
[dW][dW][dR][dV][dK][dL][dR][dW] [wwrvklrw] | VQIINK Inhibition IC50 | µm | 1.57
[dY][dR][dL][dK][dV][dR][dW] [yrlkvrw] | VQIINK Inhibition IC50 | µm | 5.12
[dF][dR][dL][dW][dI][dH][dW] [frlwihw] | VQIINK Inhibition IC50 | µm | 4.01
[dW][dR][dL][dK][dV][dR][dW][dE] [wrlkvrwe] | VQIINK Inhibition IC50 | µm | 1.54

meta.source: patent US20200216495A1
